Biological target: mouse Nurr1 receptor (Mus musculus)
Construct: a cell line (N2A) endogenously expressing the mouse Nurr1 receptor
Sequence (Q06219 whole entry): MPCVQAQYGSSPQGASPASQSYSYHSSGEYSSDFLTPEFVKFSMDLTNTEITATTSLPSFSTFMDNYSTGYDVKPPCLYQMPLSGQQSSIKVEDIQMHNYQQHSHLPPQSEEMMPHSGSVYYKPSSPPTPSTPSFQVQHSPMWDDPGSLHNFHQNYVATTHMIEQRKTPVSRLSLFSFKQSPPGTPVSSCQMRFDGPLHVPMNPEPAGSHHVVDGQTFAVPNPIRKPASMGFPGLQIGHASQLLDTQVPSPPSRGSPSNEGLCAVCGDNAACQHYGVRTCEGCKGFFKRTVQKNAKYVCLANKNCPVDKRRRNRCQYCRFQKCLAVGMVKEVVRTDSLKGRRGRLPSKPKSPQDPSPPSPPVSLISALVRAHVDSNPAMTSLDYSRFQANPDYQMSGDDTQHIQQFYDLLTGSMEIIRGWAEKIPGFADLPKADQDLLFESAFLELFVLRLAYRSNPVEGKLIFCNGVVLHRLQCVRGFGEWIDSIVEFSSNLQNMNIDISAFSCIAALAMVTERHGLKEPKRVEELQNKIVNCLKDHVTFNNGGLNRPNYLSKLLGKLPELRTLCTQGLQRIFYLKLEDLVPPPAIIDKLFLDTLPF
Assay: In vitro activity on N2A cells (NBRE-luciferase reporter)
Conditions: N2A (Neuro-2A) cells endogenously expressing mouse Nurr1, stably transfected with 8NBRE-luciferase; 24 hours incubation
Protocol: The activity of the compounds according to the invention was evaluated on a cell line (N2A) endogenously expressing the mouse Nurr1 receptor and stably transfected with the NOT binding response element (NBRE) coupled to the luciferase reporter gene. The EC50 values are between 0.01 and 1000 nM. […] The Neuro-2A cell line comes from a standard commercial source (ATCC). […] The plates are subsequently measured in a luminescence counter for microplates after having been sealed with an adhesive film. […]
pEC50: −log10 of the molar value.
READOUT_LABEL: pEC50

1) O=C(Nc1ccccn1)c1cn2cc(Cl)ccc2n1    8.66
2) O=C(Nc1ccccn1)c1cn2cc(-c3cccc(CO)c3)ccc2n1    10.40
3) CN(C)c1ccc2nc(C(=O)Nc3ccon3)cn2c1    7.98
4) CN(C)c1ccc2nc(C(=O)Nc3ccccn3)cn2c1    9.30
